Value source: ChEMBL document CHEMBL1153731

System: Staphylococcus aureus
Assay: Antibacterial activity against methicillin-resistant Staphylococcus aureus by NCCLS method
Assay type: functional, organism-based
Measured metric: MIC (µg/mL)
One number for each entry, in µg/mL.

Record request: MIC value, item `C[C@@H]1O[C@@H](Oc2c(-c3ccc(O)cc3)oc3cc(O)cc(O)c3c2=O)[C@H](OC(=O)/C=C/c2ccc(O)cc2)[C@H](OC(=O)/C=C\c2ccc(O)cc2)[C@H]1O`
1.7

Record request: MIC value, item `C[C@@H]1O[C@@H](Oc2c(-c3ccc(O)cc3)oc3cc(O)cc(O)c3c2=O)[C@H](OC(=O)/C=C\c2ccc(O)cc2)[C@H](OC(=O)/C=C/c2ccc(O)cc2)[C@H]1O`
1.3

Record request: MIC value, item `O=C(O)c1cn(C2CC2)c2cc(N3CCNCC3)c(F)cc2c1=O`
0.3

Attention now shifts to the item below.
Record request: MIC value, item `C[C@@H]1O[C@@H](Oc2c(-c3ccc(O)cc3)oc3cc(O)cc(O)c3c2=O)[C@H](OC(=O)/C=C/c2ccc(O)cc2)[C@H](OC(=O)/C=C/c2ccc(O)cc2)[C@H]1O`
10

* * *

Test system: Staphylococcus aureus
Test: Antibacterial activity against Staphylococcus aureus by NCCLS method
Assay type: functional, organism-based
Measured metric: MIC (µg/mL)
Numbers only, in µg/mL.

Study these solved cases before continuing.
Record request: MIC value, item `C[C@@H]1O[C@@H](Oc2c(-c3ccc(O)cc3)oc3cc(O)cc(O)c3c2=O)[C@H](OC(=O)/C=C\c2ccc(O)cc2)[C@H](OC(=O)/C=C/c2ccc(O)cc2)[C@H]1O`
3.8

Record request: MIC value, item `C[C@@H]1O[C@@H](Oc2c(-c3ccc(O)cc3)oc3cc(O)cc(O)c3c2=O)[C@H](OC(=O)/C=C/c2ccc(O)cc2)[C@H](OC(=O)/C=C/c2ccc(O)cc2)[C@H]1O`
13.3

Record request: MIC value, item `O=C(O)c1cn(C2CC2)c2cc(N3CCNCC3)c(F)cc2c1=O`
0.4

Record request: MIC value, item `COc1cccc(OC)c1C(=O)N[C@@H]1C(=O)N2[C@@H]1SC(C)(C)[C@@H]2C(=O)O`
2.5

Attention now shifts to the item below.
Record request: MIC value, item `C[C@@H]1O[C@@H](Oc2c(-c3ccc(O)cc3)oc3cc(O)cc(O)c3c2=O)[C@H](OC(=O)/C=C/c2ccc(O)cc2)[C@H](OC(=O)/C=C\c2ccc(O)cc2)[C@H]1O`
5.8
